Just for reference, ChEMBL document CHEMBL1201862 is where these values come from.

- System: SW-620
- Assay Summary: NCI tumour cell line growth inhibition, 48 h
Activity calls are given as the source filed them. Rule as the data show it: active = GI50 up to about 1.1 µM and inactive = higher.
Respond using exactly one of the listed classes: active, inactive

Q) What did the test return for CC(C)CCNC(=O)c1ccc(CNC(=O)/C=C/c2cccc(Oc3ccccc3)c2)cc1 ?
A) inactive

Q) What did the test return for O=[N+]([O-])c1ccc(/C=C/c2csnn2)cc1 ?
A) inactive

Q) What did the test return for Cc1ccc(Nc2nc(C)c(C(=O)CC(=O)C(=O)Nc3c(C)cccc3C(C)(C)C)s2)cc1 ?
A) inactive

Q) What did the test return for C[C@@]1(CCCCCCCCCCc2ccccc2)C[C@@]2(C)OC(=O)C[C@H]2OO1 ?
A) inactive

Q) What did the test return for O=C(O)Cc1ccc2c(c1)/C(=C1/Nc3ccccc3C1=O)C(=O)N2 ?
A) inactive

Q) What did the test return for Cc1c2c(n3c(nc4ccccc43)c1C#N)N(c1ccc(Cl)cc1)CC2 ?
A) inactive

Q) What did the test return for CSc1snc2sc3c(Cl)nnnc3c12 ?
A) inactive

Q) What did the test return for COC(=O)C1=C(OC(=O)/C(=C/c2c(F)cccc2F)c2ccccc2)C(C(=O)OC)[C@@]2(O)[C@@H](C(=O)OC)[C@H](C)C[C@@H]1[C@@H]2C(=O)OC (some centres not stated) ?
A) inactive

Q) What did the test return for C/C(=N\Nc1nc2ccccc2[nH]1)c1cnccn1 ?
A) active

Q) What did the test return for Cc1noc(C)c1-n1nc2ccc3nonc3c2n1 ?
A) inactive

Q) What did the test return for CC(C)(C)[Si](C)(C)OCC1OC(n2cnc3c(N)ncnc32)CC1O (configuration not stated) ?
A) inactive

Q) What did the test return for COC(=O)C(C(=O)C(=O)Nc1c(C)cccc1C)c1cnc2ccccc2n1 (configuration not stated) ?
A) inactive

Q) What did the test return for Nc1nc(Cl)nc2c1ncn2C1CCC(CO)O1 (configuration not stated) ?
A) inactive

Q) What did the test return for CC(C)(C)OC(=O)N1CC(COS(C)(=O)=O)c2ccc(O)cc21 (configuration not stated) ?
A) inactive

Q) What did the test return for C=CCC(C(=O)OC)C1(C(=O)OC)c2[nH]c3ccccc3c2CCN1Cc1ccccc1 (configuration not stated) ?
A) inactive

Q) What did the test return for CN(C)/C(=N\C#N)NCc1ccccc1 ?
A) inactive

Q) What did the test return for c1ccc2c(c1)SP1Sc3ccccc3P21 (configuration not stated) ?
A) inactive

Q) What did the test return for O=C1NC(=S)NC(=O)C1=Cc1ccc([N+](=O)[O-])o1 ?
A) inactive

Q) What did the test return for CCCCCCCCC/C=C1/CC(CO)(COC(=O)C2CCCCC2)OC1=O (configuration not stated) ?
A) inactive

Q) What did the test return for COc1ccc(NC(=S)c2ccc(CN3CCCCC3)s2)cc1 ?
A) inactive

Q) What did the test return for CCOC(=O)C(NC(=O)c1cccc(Cl)c1)(N1CCN(c2cc3c(cc2F)c(=O)c(C(=O)O)cn3CC)CC1)C(F)(F)F (configuration not stated) ?
A) inactive

Q) What did the test return for CN(C)c1ccc2c(=O)c3ccccc3oc2n1 ?
A) inactive

====

- Tested on: A549
- Assay Summary: NCI tumour cell line growth inhibition, 48 h
Calls of active or inactive are those of the source. Cut-off read from the data, not from the text of the source: active = GI50 up to about 1.1 µM and inactive = higher.
Respond using exactly one of the listed classes: active, inactive

Q) What did the test return for CN(Cc1cc(Br)cc(Br)c1O)Cc1c(O)ccc2ccccc12 ?
A) inactive

Q) What did the test return for COc1cccc2c1C(=O)c1c(O)c3c(c(O)c1C2=O)CC(O)(C(C)=O)CC3OC1OC(COC(C)=O)C(OC(C)=O)C(OC(C)=O)C1OC(C)=O (stereo unspecified) ?
A) inactive

Q) What did the test return for CCOC(=O)N/N=C(/OCC)c1ccccc1 ?
A) inactive

Q) What did the test return for CN1C(=O)C(CC(=O)O)NC1=S (stereo unspecified) ?
A) inactive

Q) What did the test return for CON(C)C(=O)[C@H]1C[C@@]1(C)CO ?
A) inactive

Q) What did the test return for OCCNC1c2cc(Cl)ccc2-c2c(Cl)cc(Cl)cc21 (stereo unspecified) ?
A) inactive

Q) What did the test return for CNCC(=O)Nc1ccc2c(c1)C(=O)c1ccc(NC(=O)CNC)cc1C2=O ?
A) inactive

Q) What did the test return for Nc1nc(Cl)c(N)c(NCC2(CO)CC(OCc3ccccc3)C2)n1 (stereo unspecified) ?
A) inactive

Q) What did the test return for Nc1ccc2c(c1)C(=O)N(O)C2=O ?
A) inactive

Q) What did the test return for O=C1NCN(c2ccccc2)C12CCN(CC1COc3ccccc3O1)CC2 (stereo unspecified) [SPIROXATRINE] ?
A) inactive

Q) What did the test return for Clc1ccc(/C=C/c2nc3ccccc3s2)cc1Cl ?
A) inactive

Q) What did the test return for O=C1/C(=C/Cc2ccco2)N=C(c2ccccc2)N1c1nc2c(Cl)cc(Cl)cc2s1 ?
A) inactive

Q) What did the test return for CCOC(=O)c1nnsc1NC(=O)NCCCCCCn1c(=O)n(CCCCCCNC(=O)Nc2snnc2C(=O)OCC)c(=O)n(CCCCCCNC(=O)Nc2snnc2C(=O)OCC)c1=O ?
A) inactive

Q) What did the test return for O=C1N(c2ccccc2)C(=S)/C(=C/c2ccc(Cl)cc2)N1c1ccc(Cl)cc1 ?
A) inactive

Q) What did the test return for O=C(O)CN1CCNCCNCC1 ?
A) inactive

Q) What did the test return for Fc1cccc(F)c1C1SCc2nc3cc4ccccc4cc3n21 (stereo unspecified) ?
A) inactive

Q) What did the test return for COc1ccc(NC(=O)CC(=O)n2nc(-c3ccccc3)c(/N=N/c3ccccc3C)c2-c2ccccc2)cc1 ?
A) inactive

Q) What did the test return for COc1c(C)c2c(c(O)c1C/C=C(\C)CCC(=O)O)C(=O)OC2 [MYCOPHENOLIC ACID] ?
A) active

Q) What did the test return for C[C@@H](c1ccccc1)C(CC#N)[C@H]1CCC[C@]1(O)C#Cc1ccc2c(c1)OCO2 (stereo partly specified) ?
A) inactive

Q) What did the test return for CN(C)c1ccc(/C=C2\CNC/C(=C\c3ccc(N(C)C)cc3)C2=O)cc1 ?
A) inactive

Q) What did the test return for CCOC(=O)C12OC(CCC1=O)C(C(=O)OC)=C2C(=O)OC (stereo unspecified) ?
A) inactive

====

- Tested on: TK-10
- Assay Summary: NCI tumour cell line growth inhibition, 48 h
Calls of active or inactive are those of the source. Cut-off read from the data, not from the text of the source: active = GI50 up to about 1.1 µM and inactive = higher.
Parameter Measured: GI50

Q) Given O=C(c1ccccc1)n1c2ccc(Br)cc2c2nc3ccccc3nc21 , respond with its GI50.
A) > 100 µM (inactive)

Q) Given CC1=C(C)SC(=C2Sc3c(n(C)c(=O)[nH]c3=O)S2)S1 , respond with its GI50.
A) > 100 µM (inactive)

Q) Given O=C1/C(=C/Cc2ccco2)N=C(c2ccccc2)N1c1nc2c(Cl)cc(Cl)cc2s1 , respond with its GI50.
A) 42.7 µM (inactive)

Q) Given Cc1nn2c(C(=O)N/N=C/c3ccc([N+](=O)[O-])cc3)c(C)nc2s1 , respond with its GI50.
A) 36.7 µM (inactive)

Q) Given CON(C)C(=O)C(C)NC(=O)OC(C)(C)C (stereo unspecified) , respond with its GI50.
A) > 100 µM (inactive)

Q) Given CC(C)/C(Cl)=N\OC(=O)Nc1ccc(F)cc1F , respond with its GI50.
A) 5.19 µM (inactive)

====

Give GI50 for every item shown.
- System: ACHN
- Assay Summary: NCI tumour cell line growth inhibition, 48 h
The source made the active and inactive calls. Cut-off read from the data, not from the text of the source: active = GI50 up to about 1.1 µM and inactive = higher.

Q) Given COP(C)(=O)C1=CCN(C(=O)OCC[Si](C)(C)C)CC1 (centres undefined) , respond with its GI50.
A) > 100 µM (inactive)

Q) Given CNC(=O)CNC(=O)CCC(=O)N(C)C , respond with its GI50.
A) > 100 µM (inactive)

Q) Given CN(C)c1ccc(/C=C2\Oc3cc(O)ccc3C2=O)cc1 , respond with its GI50.
A) > 100 µM (inactive)

Q) Given O=C(OCN1C(=O)C2C3C=CC(C2C1=O)C1C2C(=O)N(COC(=O)C4CCCN4)C(=O)C2C31)C1CCCN1 (centres undefined) , respond with its GI50.
A) > 50.5 µM (inactive)

Q) Given CC(=O)O[C@H]1C(=O)[C@@]2(C)[C@H]([C@H](OC(=O)c3ccccc3)[C@]3(O)C[C@H](OC(=O)[C@H](O)[C@@H](NC(=O)OC(C)(C)C)c4ccco4)C(C)=C1C3(C)C)[C@]1(OC(C)=O)CO[C@@H]1C[C@@H]2O , respond with its GI50.
A) 8.2 µM (inactive)

Q) Given CCn1c(SCC(=O)NNC(=S)Nc2ccc(C)cc2)nc2ccccc2c1=O , respond with its GI50.
A) > 100 µM (inactive)

Q) Given CN(C)CCCNC(=O)N/N=C/c1ccccn1 , respond with its GI50.
A) > 10 µM (inactive)

Q) Given O=C(COc1ccc2c(=O)cc(-c3ccccc3)oc2c1)N1CCN(c2ccccc2)CC1 , respond with its GI50.
A) 50.8 µM (inactive)

Q) Given N#Cc1c(-c2ccccc2)[nH]c(=O)n(C2OC(CO)C(O)C(O)C2O)c1=O (centres undefined) , respond with its GI50.
A) > 100 µM (inactive)
